This collection of values is drawn from the supplement of paper PMC10567573.

B1: MYL5 (parent)
chain: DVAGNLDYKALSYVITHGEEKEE

Variants of: B1
Experiment: protein stability index of a GFP-peptide fusion (GPS, HEK-293T) (PSI 1-6); higher = more stable;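 also: lentivirally expressed fusions sorted by FACS into six bins by GFP to DsRed ratio, PSI derived from sequencing read proportions per bin multiplied by bin number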
Details: c terminus: native
Measured protein stability index, listed per entry for reference.
Assay Metric: protein stability index

mutant=Y13I numeric_readout=2.14
mutant=Y8E numeric_readout=2.01
mutant=A10I numeric_readout=2.24
mutant=Y8I numeric_readout=2.11
mutant=N5L numeric_readout=3.25
mutant=E23K numeric_readout=3.3
mutant=L11T numeric_readout=2.81
mutant=E23N numeric_readout=4.99
mutant=H17W numeric_readout=1.79
mutant=E23H numeric_readout=2.67
mutant=L6M numeric_readout=1.76
